test.summary: CREB reporter modulators under forskolin, primary screen, cell-based, PC12, CRE-LacZ reporter, forskolin-stimulated (AID 1146);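 also: PC12 cells with 6xCRE LacZ reporter stimulated by forskolin 10 µM; beta-galactosidase reporter signal reflecting CREB driven transcription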
condition.description: luminescence, 4.5 h, higher = more signal, called active from +8 up or from −8 down
readout.type: z-score

molecule=Cc1ccc(S(=O)(=O)n2c3ccccc3c3nnc(C(=O)c4ccccc4)nc32)cc1 reported=-1.15
molecule=COCOc1ccc(Br)cc1C(=O)[C@@H]1O[C@H]1c1cccc(OC)c1 reported=-0.37
molecule=CCOC(=O)NN=C1C[C@@H](O)[C@@H](O)[C@@H]2[C@@H]3C(=O)N(C(C)(C)C)C(=O)[C@@H]3CC[C@H]12 reported=0.269
molecule="CCOC(=O)[C@H](Cc1ccccc1)NC(=O)CCC1CC(OC(=O)NCc2ccc3c(c2)OCO3)CC2(CCCC(COC(=O)NCCC(C)C)O2)O1 (some centres undefined)" reported=0.0924

---

system.under.test: Fibroblast growth factor 10 (Homo sapiens)
test.summary: FGF10 binders on small-molecule microarrays, primary screen, biochemical, small-molecule microarray, 635 nm fluorescence (AID 1102)
condition.description: FGF10 binding, fluorescence 635 nm, higher = more signal
Answer not fulfilled if composite z-score is under 1, and fulfilled if it is 1 or more.

molecule=C[C@@H]1C=CCC(=O)OC[C@H]2O[C@@H](C=C[C@@H]2O)[C@H](C)C=CCC(=O)OC1 assigned_category=fulfilled
molecule=CO[C@H]1COC(=O)[C@@H](C)COC(=O)[C@@H](OCc2ccccc2)C=C[C@@H]1C assigned_category="not fulfilled"
molecule=Cc1ccc(S(=O)(=O)OC[C@H]2CN3[C@H](c4ccc(Br)cc4)[C@@H](C)CC[C@H]3C(=O)O2)cc1 assigned_category="not fulfilled"
molecule="COC(=O)[C@H](C)NC(=O)CCC1CC(OC(=O)NCc2ccc3c(c2)OCO3)CC2(CCCC(COC(=O)NCCc3ccccc3OC)O2)O1 (stereo partly drawn)" assigned_category="not fulfilled"
molecule=CC(C)=CCCC(C)=CCON=C1C[C@@H](O)[C@@H](O)[C@@H]2[C@@H]3C(=O)N(Cc4ccccc4)C(=O)[C@@H]3CC[C@@H]12 assigned_category=fulfilled
molecule="CCOC(=O)[C@H](CC(C)C)NC(=O)CCC1CC(OC(=O)NCCc2ccc(F)cc2)CC2(CCCC(COC(=O)NCC3CCCCC3)O2)O1 (stereo partly drawn)" assigned_category="not fulfilled"
molecule=CC(C)[C@@H](OCc1ccccc1)[C@H](C)C=NOC[C@@H](O)COCc1ccco1 assigned_category="not fulfilled"
molecule=CC(CCN1CCCCc2nc(C)c(C)cc21)=NOC[C@@H](O)COCc1ccco1 assigned_category=fulfilled

---

test.summary: HepG2 cell viability effects, profiling panel, calcein-AM fluorescence, 48 h, basal (AID 1164); also: test concentration not given here
condition.description: higher = more signal
readout.type: z-score

compound="CCOC(=O)[C@H](Cc1ccccc1)NC(=O)CCC1CC(OC(=O)NCCc2ccc(F)cc2)CC2(CCCC(COC(=O)NCCCN3CCCC3=O)O2)O1 (some centres undefined)" reported=0.43
compound=CCCNC(=O)OC[C@H]1O[C@H](CCON=C(C)CCC(=O)OC[C@H]2O[C@H](c3ccccc3)C=C[C@@H]2Oc2ccc(OC)cc2)C=C[C@@H]1Oc1ccc(OC)cc1 reported=-0.208
compound="CCOC(=O)[C@H](CC(C)C)NC(=O)CCC1CC(OC(=O)NCCc2ccc(F)cc2)CC2(CCCC(COC(=O)NCCc3ccc(Cl)cc3)O2)O1 (some centres undefined)" reported=-0.49
compound=COC(=O)CC=C[C@@H](C)[C@@H](C=NO[C@H](C)c1cn([C@H](CO)Cc2ccccc2)nn1)NS(=O)(=O)c1ccc(C)cc1 reported=-0.647
compound="COC(=O)[C@H](C)NC(=O)CCC1CC(OC(=O)NCc2ccc3c(c2)OCO3)CC2(CCCC(COC(=O)NCc3cccc(C(F)(F)F)c3)O2)O1 (some centres undefined)" reported=-1.55
compound=O=C1[C@H]2[C@H]3[C@H](O)[C@H](O)CC(=NOC[C@@H](O)COCc4ccco4)[C@@H]3CC[C@H]2C(=O)N1C[C@@H]1CCCO1 reported=-0.128
compound=C#CCCCON=C1[C@H]2CCn3c(=O)n(-c4ccccc4)c(=O)n3[C@H]2[C@H](O)[C@@H]2O[C@H]12 reported=1.09
compound=CCc1cc2c(nc1CC)CCN(CCC(C)=NOC[C@H]1O[C@H](c3ccccc3)C=C[C@@H]1Oc1ccc(OC)cc1)C2 reported=-0.106
compound=C#CCCCON=C1C[C@@H](O)[C@@H](O)[C@@H]2[C@@H]3C(=O)N(C(C)(C)C)C(=O)[C@@H]3CC[C@@H]12 reported=-0.486
compound=CCN1C(=O)[C@H]2[C@H]3[C@H](O)[C@H](O)CC(=NO[C@@H](C)c4cn([C@H](CO)Cc5ccccc5)nn4)[C@@H]3CC[C@H]2C1=O reported=-0.644
compound=CCOC(=O)NN=C1C[C@@H](O)[C@@H](O)[C@@H]2[C@@H]3C(=O)N(C(C)(C)C)C(=O)[C@@H]3CC[C@H]12 reported=1.34
compound=CC(C)(C)N1C(=O)[C@H]2[C@H]3[C@H](O)[C@H](O)CC(=O)[C@H]3CC[C@H]2C1=O reported=0.258
compound="CCOC(=O)[C@H](Cc1ccccc1)NC(=O)CCC1CC(OC(=O)NCc2cccc3ccccc23)CC2(CCCC(COC(=O)NCCC(C)C)O2)O1 (some centres undefined)" reported=-0.166
compound="CCOC(=O)[C@H](Cc1ccccc1)NC(=O)CCC1CC(OC(=O)NCCc2ccc(F)cc2)CC2(CCCC(COC(=O)NCC3CCCCC3)O2)O1 (some centres undefined)" reported=0.901

---

test.summary: PSAC antagonists in infected red cells, primary screen, cell-based, P. falciparum Indochina, OD700, 18 h (AID 1157)
condition.description: P. falciparum Indochina infected erythrocytes, osmotic lysis OD700, 18 h; higher = more signal, called active from +8 up or from −8 down
Threshold rule: z-score greater than or equal to 0.2 is yes; below that, no.

compound=C#CCCCON=C1C[C@@H](O)[C@@H](O)[C@@H]2[C@@H]3C(=O)N(Cc4ccccc4)C(=O)[C@@H]3CC[C@@H]12 assigned_category=no
compound=CC(C)=NOC[C@@H](C)[C@H](OCc1ccccc1)C(C)C assigned_category=yes
compound=C#CCCCON=C1[C@H]2CCn3c(=O)n(C)c(=O)n3[C@H]2[C@H](O)[C@@H]2O[C@H]12 assigned_category=no
compound="CCC=CCCC(OC(=O)c1ccc(Br)cc1)C1=CCCCC1=O (stereo not drawn)" assigned_category=no
compound="CCOC(=O)[C@H](CC(C)C)NC(=O)CCC1CC(OC(=O)NCc2cccc3ccccc23)CC2(CCCC(COC(=O)NCc3cccc(C(F)(F)F)c3)O2)O1 (stereo partly drawn)" assigned_category=yes
compound=CCN1C(=O)[C@H]2[C@H]3[C@H](O)[C@H](O)CC(=O)[C@H]3CC[C@H]2C1=O assigned_category=no
compound=CO[C@H]1COC(=O)[C@@H](C)COC(=O)[C@H](COCc2ccccc2)NC(=O)CC=C[C@H]1C assigned_category=no

---

test.summary: binders of probe aFGF10 on microarray, primary screen, stem cell growth factor project, biochemical, small-molecule microarray, fluorescence 635/667 (AID 1071);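 also: score merges 667 nm spot intensity and signal to noise from triplicate slides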
condition.description: higher = more signal
# composite z-score listing for each entry below
readout.type: composite z-score

compound="CCOC(=O)[C@H](CC(C)C)NC(=O)CCC1CC(OC(=O)NCCc2ccc(F)cc2)CC2(CCCC(COC(=O)NCC3CCCCC3)O2)O1 (stereo not given in full)" readout_type="composite z-score" reported=0.817
compound=CCc1cc2c(nc1CC)CCN(CCC(C)=NO[C@H](C)c1cn([C@H](CO)Cc3ccccc3)nn1)C2 readout_type="composite z-score" reported=0.0116
compound=CC(C)=CCCC(C)=CCON=C1C[C@@H](O)[C@@H](O)[C@@H]2[C@@H]3C(=O)N(c4cccc(Oc5ccccc5)c4)C(=O)[C@@H]3CC[C@@H]12 readout_type="composite z-score" reported=0.341
compound=CO[C@@H]1COC(=O)[C@H](CCSC)NC(=O)CC=C[C@@H](C)COC(=O)[C@H](C)NC(=O)CC=C[C@H]1C readout_type="composite z-score" reported=0.347
compound=CO[C@@H]1COC(=O)CC=C[C@H](C)[C@H](OC)COC(=O)[C@H](C)NC(=O)CC=C[C@H]1C readout_type="composite z-score" reported=-0.267
compound=O=C1[C@H]2[C@H]3[C@H](O)[C@H](O)CC(=NOC[C@@H](O)COCc4ccco4)[C@H]3CC[C@H]2C(=O)N1C[C@@H]1CCCO1 readout_type="composite z-score" reported=0.133
compound="O=C1CCCC(C2=CCCCC2=O)C1 (stereo not given)" readout_type="composite z-score" reported=0.0787
compound=COc1ccc(COC(=O)NN=C2C[C@@H](O)[C@@H](O)[C@@H]3[C@@H]4C(=O)N(c5ccc(F)cc5F)C(=O)[C@@H]4CC[C@H]23)cc1 readout_type="composite z-score" reported=-0.088
compound="CCC1=NOC(CCC2CC(OC(=O)NCc3cccc4c3OCO4)CC3(CCCC(COC(=O)NCCc4ccccc4OC)O3)O2)C1 (stereo not given)" readout_type="composite z-score" reported=0.504
compound=CC(C)=CCCC(C)=CCON=C1C[C@@H](O)[C@@H](O)[C@@H]2[C@@H]3C(=O)N(C(C)(C)C)C(=O)[C@@H]3CC[C@H]12 readout_type="composite z-score" reported=0.406
compound=CCOC(=O)NN=C1C[C@@H](O)[C@@H](O)[C@@H]2[C@@H]3C(=O)N(Cc4ccccc4)C(=O)[C@@H]3CC[C@H]12 readout_type="composite z-score" reported=0.164
compound=Cc1cc2c(c(=O)o1)[C@@H](O)[C@H]1O[C@H]1C2=O readout_type="composite z-score" reported=0.336
compound="CCOC(=O)[C@H](CC(C)C)NC(=O)CCC1CC(OC(=O)NCCc2ccc(F)cc2)CC2(CCCC(COC(=O)NCCc3ccccc3OC)O2)O1 (stereo not given in full)" readout_type="composite z-score" reported=0.363
compound=C#CCCCON=C1C[C@@H](O)[C@@H](O)[C@@H]2[C@@H]3C(=O)N(c4cccc(Oc5ccccc5)c4)C(=O)[C@@H]3CC[C@H]12 readout_type="composite z-score" reported=-0.264
compound="CCOC(=O)[C@H](CC(C)C)NC(=O)CCC1CC(OC(=O)NCc2ccc3c(c2)OCO3)CC2(CCCC(COC(=O)NCCCN3CCCC3=O)O2)O1 (stereo not given in full)" readout_type="composite z-score" reported=0.706

This collection of values is drawn from PubChem BioAssay.
